Cited source for all entries: patent US20040120938A1

system: Lactobacillus casei 6375; assay: Bacterial growth rate by optical density, 96 well plate (Tests 8(f), 8(g)); assay type: cell-based; conditions: Lacticaseibacillus casei, 6375; Lactobacillus; at 30 μg XO; read-out: half maximal hypoxanthine dose
Attribute measured: IC50 (µM)
Give bare numbers, in µM.

// IC50 (Lactobacillus casei 6375) for O=c1[nH]cnc2nc[nH]c12 [Hypoxanthine, hypoxanthine] = 104

* * *

test system: Micrococcus sp; settings: read-out: Half maximal concentration H2O2, bolus at beginning of logarithmic growth
Attribute measured: IC50 (µM)
Numbers only, in µM.

Quick note, IC50 for OO [H2O2, hydrogen peroxide] landed at 19.5
